Value source: PubChem BioAssay (NCATS)

Tested on: SKOV3
Assay: Primary qHTS to identify gynecologic anti-cancer compounds using libraries of approved drugs and bioactive compounds (AID 1345084); also: % is scaled to controls: 0 for no effect and ±100 for the full control effect; nearly all actives have a fitted effect of over 55% in size
Conditions: Gynecologic cancer cell panel viability, ATPlite luminescence, 48 h; series mostly up to 57.5 µM
Inconclusive results are not listed. The source made the active and inactive calls. Calls follow the shape of the dose curve; as a rule, active = well fitted cell-killing curve with a large enough effect; inconclusive = small, poorly fitted or top-dose-only effect, or effect the other way; inactive = flat fitted curve, though single readings scatter.

{"Molecule": "CC(=O)/C=C/C1(O)C(C)(C)CC(O)CC1(C)O (configuration not stated)", "Experimental system": "SKOV3", "activity change, negative = cytotoxicity": "inactive"}
{"Molecule": "CC(C)=CCC[C@](C)(O[C@@H]1O[C@H](CO)[C@@H](O)[C@H](O)[C@H]1O)[C@H]1CC[C@]2(C)[C@@H]1[C@H](O)CC1[C@@]3(C)CC[C@H](O)C(C)(C)C3[C@@H](O[C@@H]3O[C@H](CO)[C@@H](O)[C@H](O)[C@H]3O[C@@H]3O[C@@H](C)[C@H](O)[C@@H](O)[C@H]3O)C[C@]12C (some centres not stated)", "Experimental system": "SKOV3", "activity change, negative = cytotoxicity": "18.8% [at 11.6 µM] (inactive)"}
{"Molecule": "COC(=O)C1=COC(OC2OC(CO)C(O)C(O)C2O)C2C(COC(=O)/C=C/c3ccc(O)c(O)c3)C(O)C(O)C12 (configuration not stated)", "Experimental system": "SKOV3", "activity change, negative = cytotoxicity": "inactive"}
{"Molecule": "CC1=C2CC(C)(C)CC2C(O)C2=C(C1)C(=O)OC2O (configuration not stated)", "Experimental system": "SKOV3", "activity change, negative = cytotoxicity": "inactive"}
{"Molecule": "CC1=C(CC/C(C)=C/C(=O)O)[C@@]2(C)CCCC(C)(C)C2CC1=O (some centres not stated)", "Experimental system": "SKOV3", "activity change, negative = cytotoxicity": "inactive"}
{"Molecule": "CC(=O)O[C@@H]1[C@H](O[C@@H]2OC[C@](O)(CO)[C@H]2O)[C@@H](O[C@@H]2O[C@@H](C)[C@H](O)[C@@H](O[C@@H]3O[C@H](CO)[C@@H](O)[C@H](O)[C@H]3O)[C@H]2O)[C@H](OC(=O)[C@]23CCC(C)(C)C[C@H]2C2=CCC4[C@@]5(C)C[C@H](O)[C@H](O[C@@H]6O[C@H](C(=O)O)[C@@H](O)[C@H](O)[C@H]6O)[C@@](C)(C(=O)O)C5CC[C@@]4(C)[C@]2(C)CC3)O[C@@H]1C (some centres not stated)", "Experimental system": "SKOV3", "activity change, negative = cytotoxicity": "27% [at 6.55 µM] (inactive)"}
{"Molecule": "CC1=C2C(=O)C=C(CO[C@@H]3O[C@H](CO)[C@@H](O)[C@H](O)[C@H]3O)[C@@H]2[C@H]2OC(=O)[C@H](C)[C@@H]2CC1", "Experimental system": "SKOV3", "activity change, negative = cytotoxicity": "inactive"}
